These measurements were taken from patent US20210261621A1.

System: P. aeruginosa PAO1
Set-up: unit not given beside the values
CONDITION: in combination with Streptomycin
Positions of bridges follow the written chain, without caps; N, C: chain ends. Non-standard residues stand in square brackets, D forms with d. Residues, ends and D or L forms follow the SMILES beside them. *: point of attachment. Octanoyl = CCCCCCCC(=O)*; Dab = NCC[C@H](N)C(=O)O
PROPERTY LABEL: MIC of adjuvant in combo

molecule="CCCCCCCC(=O)NCC[C@H](NC(=O)CCCCCCC)C(=O)N[C@H](C(=O)N[C@@H](CCN)C(=O)N[C@H]1CCNC(=O)[C@H]([C@@H](C)O)NC(=O)[C@H](CCN)NC(=O)[C@H](CCN)NC(=O)[C@H](CC(C)C)NC(=O)[C@@H](Cc2ccccc2)NC(=O)[C@H](CCN)NC1=O)[C@@H](C)O [Compound 2, Dioctanoic Acid (Di-C8) Polymyxin] (Octanoyl-[Dab](Octanoyl)T[Dab][Dab][Dab][dF]L[Dab][Dab]T; lactam 4-C)" target_or_test_system="P. aeruginosa PAO1" property_label="MIC of adjuvant in combo" result=(4)
molecule="CC(C)C[C@@H]1NC(=O)[C@@H](Cc2ccccc2)NC(=O)[C@H](CCN)NC(=O)[C@@H](NC(=O)[C@H](CCN)NC(=O)[C@@H](N)[C@@H](C)O)CCNC(=O)[C@H]([C@@H](C)O)NC(=O)[C@H](CCN)NC(=O)[C@H](CCN)NC1=O [PMBN, polymyxin B nonapeptide, reference compound] (H-T[Dab][Dab][Dab][dF]L[Dab][Dab]T; lactam 3-C (inferred))" target_or_test_system="P. aeruginosa PAO1" property_label="MIC of adjuvant in combo" result=(0.5)
